Please go through the items and note down their pIC50.
tested-on: T1, human MET-Fc (R&D Systems) (human, UniProt P08581 25-932)
T1 construct: extracellular domain; bought chimeric protein; also called hMET; not shown: Fc portion of human IgG1
method-description: competition ELISA, hMET-Fc in solid phase, competitor 0.3 nM biotinylated hHGF
One number for each entry, as −log10 of the molar value.

Example cases with answers are listed next.
{"binder": "72F8 chimeric llama-human IgG1 mAb (antibody, V domains shown, llama VH on human IgG1 CH1-CH2-CH3, llama VL on human lambda CL) VH: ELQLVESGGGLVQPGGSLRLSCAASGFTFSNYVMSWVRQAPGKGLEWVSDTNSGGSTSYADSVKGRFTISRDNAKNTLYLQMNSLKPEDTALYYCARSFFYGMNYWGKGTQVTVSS VL: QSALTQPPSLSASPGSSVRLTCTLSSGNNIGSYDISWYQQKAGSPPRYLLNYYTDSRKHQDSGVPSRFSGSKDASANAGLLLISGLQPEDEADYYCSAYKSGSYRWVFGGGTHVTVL", "reported-property": "pIC50", "recorded-value": 9.35}
{"binder": "71G3 chimeric llama-human IgG1 mAb (antibody, V domains shown, llama VH on human IgG1 CH1-CH2-CH3, llama VL on human lambda CL) VH: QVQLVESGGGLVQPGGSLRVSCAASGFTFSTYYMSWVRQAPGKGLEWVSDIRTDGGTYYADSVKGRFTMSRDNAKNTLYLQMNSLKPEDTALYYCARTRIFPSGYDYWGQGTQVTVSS VL: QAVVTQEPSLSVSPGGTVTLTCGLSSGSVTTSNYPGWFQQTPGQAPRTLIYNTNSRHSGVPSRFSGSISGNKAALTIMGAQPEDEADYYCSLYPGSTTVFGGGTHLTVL", "reported-property": "pIC50", "recorded-value": 9.31}
{"binder": "71D6 chimeric llama-human IgG1 mAb (antibody, V domains shown, llama VH on human IgG1 CH1-CH2-CH3, llama VL on human lambda CL) VH: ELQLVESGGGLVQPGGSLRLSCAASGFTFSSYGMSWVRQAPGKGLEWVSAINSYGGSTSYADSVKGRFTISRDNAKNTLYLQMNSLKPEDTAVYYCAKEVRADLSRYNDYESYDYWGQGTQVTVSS VL: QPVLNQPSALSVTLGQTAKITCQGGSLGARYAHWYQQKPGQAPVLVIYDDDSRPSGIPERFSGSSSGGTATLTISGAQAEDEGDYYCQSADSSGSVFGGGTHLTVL", "reported-property": "pIC50", "recorded-value": 9.54}

So, 71C3 chimeric llama-human IgG1 mAb (antibody, V domains shown, llama VH on human IgG1 CH1-CH2-CH3, llama VL on human lambda CL) VH: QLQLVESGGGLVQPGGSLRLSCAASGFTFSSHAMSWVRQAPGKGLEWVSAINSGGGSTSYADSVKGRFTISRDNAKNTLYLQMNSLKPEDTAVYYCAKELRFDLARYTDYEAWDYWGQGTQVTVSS VL: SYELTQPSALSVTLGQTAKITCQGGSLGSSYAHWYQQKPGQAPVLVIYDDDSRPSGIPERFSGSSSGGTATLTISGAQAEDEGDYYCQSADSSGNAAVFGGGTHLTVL ? Its pIC50 was 8.85
